Structures can show the parent of a compound that is named as a salt.
Record: IC50 reported on DPP-VIII (Homo sapiens (Human), UniProt Q6V1X1).
Sequence (Q6V1X1 whole entry, species assumed): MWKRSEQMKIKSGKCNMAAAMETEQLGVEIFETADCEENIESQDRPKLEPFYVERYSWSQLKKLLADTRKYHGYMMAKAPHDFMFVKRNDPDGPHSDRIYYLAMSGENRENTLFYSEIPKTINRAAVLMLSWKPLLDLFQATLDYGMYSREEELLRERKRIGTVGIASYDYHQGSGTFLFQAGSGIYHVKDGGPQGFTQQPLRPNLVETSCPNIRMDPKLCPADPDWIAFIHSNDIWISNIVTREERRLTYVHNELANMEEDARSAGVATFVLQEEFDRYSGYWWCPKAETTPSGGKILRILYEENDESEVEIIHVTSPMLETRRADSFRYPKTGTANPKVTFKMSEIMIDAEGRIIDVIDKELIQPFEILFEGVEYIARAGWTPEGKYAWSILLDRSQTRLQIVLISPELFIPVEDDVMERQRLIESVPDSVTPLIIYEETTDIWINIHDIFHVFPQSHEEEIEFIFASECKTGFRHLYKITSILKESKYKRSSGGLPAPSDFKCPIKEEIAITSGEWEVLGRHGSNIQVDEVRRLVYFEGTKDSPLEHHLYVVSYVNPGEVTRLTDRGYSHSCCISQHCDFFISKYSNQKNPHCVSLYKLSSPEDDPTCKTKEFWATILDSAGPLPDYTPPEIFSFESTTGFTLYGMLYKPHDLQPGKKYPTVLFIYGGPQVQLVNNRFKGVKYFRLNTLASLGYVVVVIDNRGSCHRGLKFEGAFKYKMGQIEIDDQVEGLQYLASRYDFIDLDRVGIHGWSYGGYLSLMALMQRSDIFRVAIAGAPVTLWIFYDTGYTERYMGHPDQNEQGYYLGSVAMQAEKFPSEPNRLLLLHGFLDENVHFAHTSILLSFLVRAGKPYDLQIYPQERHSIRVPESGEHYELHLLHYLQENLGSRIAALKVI

// below: answered compounds
>>> df
                                   compound    result
0  N[C@@H](CC(=O)N1CCc2c(nc(-c3ccncc3)nc2C(F)(F)F)C1)CN1C(=O)CCC(F)(F)[C@@H]1O  > 127 µM
1  N[C@@H](CC(=O)N1CCc2c(nc(-c3ccco3)nc2C(F)(F)F)C1)CN1C(=O)CCC(F)(F)[C@@H]1O [Example 8, hydrochloride]  > 400 µM
2  N[C@@H](CC(=O)N1CCc2c(nc(C3CCC3)nc2C(F)(F)F)C1)CN1C(=O)CCC(F)(F)C1O (stereo partly shown) [Example 5, hydrochloride]  > 400 µM

// next item, IC50 requested
Retrieve IC50 on DPP-VIII (Homo sapiens (Human), UniProt Q6V1X1); query COCCc1nc2c(c(C(F)(F)F)n1)CCN(C(=O)C[C@H](N)CN1C(=O)CCC(F)(F)[C@@H]1O)C2 [Example 10, hydrochloride]
> 400 µM
